biological target: CBX7 (Mus musculus, UniProt Q8VDS3); test: Polycomb in-vivo Assay
Sequence (Q8VDS3 2-69 limits assumed): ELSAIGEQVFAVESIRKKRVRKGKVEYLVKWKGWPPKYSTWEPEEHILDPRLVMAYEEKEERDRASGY
Numbered stars: 1 amine (or outer) side, 2 acyl side, 3 side chain; on linkers, the order of the positions; unused ones are H or OH. Square brackets hold non-standard residues; d marks the D form. Peptide text beside a SMILES is read from it. * marks the point of attachment. X10 = CN(CCCC[C@H](N[*:1])C(=O)[*:2])C1C2CC3CC(C2)CC1C3; X2 = COc1ccc(CN(C)CCCC[C@H](N[*:1])C(=O)[*:2])cc1; X8 = O=C([C@H](CCCCN(C1CCC1)C1CCC1)N[*:1])[*:2]; X3 = CN(CCCC[C@H](N[*:1])C(=O)[*:2])Cc1ccccc1; X7 = CN(CCCC[C@H](N[*:1])C(=O)[*:2])C1CCCCC1; X1 = CCCN(CCCC[C@H](N[*:1])C(=O)[*:2])C(C)C; Lys(Et,iPr) = CCN(CCCC[C@H](N)C(=O)O)C(C)C; X4 = COC(C)N(C)CCCC[C@H](N[*:1])C(=O)[*:2]; Benzoyl(4-tBu) = CC(C)(C)c1ccc(C(=O)*)cc1
measurement-type: EC50 (µM)
Please reply with the bare figure in µM and do not write the unit itself.

COC(=O)[C@H](CO)NC(=O)[C@H](CCCCN(C)C(C)OC)NC(=O)[C@H](CC(C)C)NC(=O)[C@H](C)NC(=O)[C@H](Cc1ccccc1)NC(=O)c1ccc(C(C)(C)C)cc1 (some centres unmarked) [UNC6481] ({Benzoyl(4-tBu)}-FAL[X4]S-OMe) = 23.7
COC(=O)[C@H](CO)NC(=O)[C@H](CCCCN(C)C1CCCCC1)NC(=O)[C@H](CC(C)C)NC(=O)[C@H](C)NC(=O)[C@H](Cc1ccccc1)NC(=O)c1ccc(C(C)(C)C)cc1 [UNC6372] ({Benzoyl(4-tBu)}-FAL[X7]S-OMe) = 4.59
COC(=O)[C@H](CO)NC(=O)[C@H](CCCCN(C1CCC1)C1CCC1)NC(=O)[C@H](CC(C)C)NC(=O)[C@H](C)NC(=O)[C@H](Cc1ccccc1)NC(=O)c1ccc(C(C)(C)C)cc1 [UNC6370] ({Benzoyl(4-tBu)}-FAL[X8]S-OMe) = 13.7
CCN(CCCC[C@H](NC(=O)[C@H](CC(C)C)NC(=O)[C@H](C)NC(=O)[C@H](Cc1ccccc1)NC(=O)c1ccc(C(C)(C)C)cc1)C(=O)N[C@@H](CO)C(=O)OC)C(C)C [UNC4941] ({Benzoyl(4-tBu)}-FAL[Lys(Et,iPr)]S-OMe) = 36.6
CCCN(CCCC[C@H](NC(=O)[C@H](CC(C)C)NC(=O)[C@H](C)NC(=O)[C@H](Cc1ccccc1)NC(=O)c1ccc(C(C)(C)C)cc1)C(=O)N[C@@H](CO)C(=O)OC)C(C)C [UNC4971] ({Benzoyl(4-tBu)}-FAL[X1]S-OMe) = 26.5

Incoming: Retrieve EC50 measured for COC(=O)[C@H](CO)NC(=O)[C@H](CCCCN(C)C1C2CC3CC(C2)CC1C3)NC(=O)[C@H](CC(C)C)NC(=O)[C@H](C)NC(=O)[C@H](Cc1ccccc1)NC(=O)c1ccc(C(C)(C)C)cc1 (some centres unmarked) [UNC6373] ({Benzoyl(4-tBu)}-FAL[X10]S-OMe) and print it.
Outgoing: 1.02

Incoming: Retrieve EC50 measured for COC(=O)[C@H](CO)NC(=O)[C@H](CCCCN(C)Cc1ccccc1)NC(=O)[C@H](CC(C)C)NC(=O)[C@H](C)NC(=O)[C@H](Cc1ccccc1)NC(=O)c1ccc(C(C)(C)C)cc1 [UNC6375] ({Benzoyl(4-tBu)}-FAL[X3]S-OMe) and print it.
Outgoing: 2.36

Incoming: Retrieve EC50 measured for COC(=O)[C@H](CO)NC(=O)[C@H](CCCCN(C)Cc1ccc(OC)cc1)NC(=O)[C@H](CC(C)C)NC(=O)[C@H](C)NC(=O)[C@H](Cc1ccccc1)NC(=O)c1ccc(C(C)(C)C)cc1 [UNC6483] ({Benzoyl(4-tBu)}-FAL[X2]S-OMe) and print it.
Outgoing: 2.06

The reported measurements were obtained from paper PMC6800648.
